Assay: Solubility at pH 7.4
Assay type: physicochemical
Details: 50 mM sodium phosphate buffer
Measured quantity: solubility at 2 h

Tell me the measured solubility at 2 h of COc1ccc(CCN2CCN(c3ccccc3OC)CC2)cc1OC.Cl [LDT5] , please. ≥ 100 µM

###

Assay: In vitro metabolism in rat hepatocytes
Type: in vitro ADME
Details: rat, hepatocytes
Measured quantity: half-life at 0.5 µM (min)
Respond with the bare value in min.

Tell me the measured half-life at 0.5 µM of `COc1ccc(CCN2CCN(c3ccccc3OC)CC2)cc1OC.Cl` , please. 11

###

Molecular target: CYP2D6 (Homo sapiens, UniProt P10635)
Sequence (P10635 whole entry): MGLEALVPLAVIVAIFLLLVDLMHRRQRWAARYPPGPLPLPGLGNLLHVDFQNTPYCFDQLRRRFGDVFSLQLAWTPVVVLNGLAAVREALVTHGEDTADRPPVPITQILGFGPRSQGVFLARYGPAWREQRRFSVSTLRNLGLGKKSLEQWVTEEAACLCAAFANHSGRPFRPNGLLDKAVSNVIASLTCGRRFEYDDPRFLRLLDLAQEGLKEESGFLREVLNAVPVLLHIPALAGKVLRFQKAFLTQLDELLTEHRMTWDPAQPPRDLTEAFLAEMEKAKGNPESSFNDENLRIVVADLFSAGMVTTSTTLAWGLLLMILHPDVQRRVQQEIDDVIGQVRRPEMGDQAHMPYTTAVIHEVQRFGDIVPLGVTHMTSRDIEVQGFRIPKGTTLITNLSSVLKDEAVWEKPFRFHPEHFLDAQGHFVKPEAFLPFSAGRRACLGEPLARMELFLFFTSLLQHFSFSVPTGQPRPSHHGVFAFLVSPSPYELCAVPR
Test: CYP profiling with purified isozyme
Assay type: in vitro ADME
Details: purified human CYP2D6 isozyme (Cypex)
Measured quantity: half-life at 0.5 µM (min)
Respond with the bare value in min.

Tell me the measured half-life at 0.5 µM of COc1ccc(CCN2CCN(c3ccccc3OC)CC2)cc1OC.Cl [LDT5] , please. 5

###

Experiment: In vitro metabolism in human liver microsomes
Format: in vitro ADME
Conditions: both, human, liver microsomes
Measured quantity: half-life at 0.5 µM

Tell me the measured half-life at 0.5 µM of `COc1ccc(CCN2CCN(c3ccccc3OC)CC2)cc1OC.Cl` , please. > 30 min

###

Test: In vitro metabolism in human hepatocytes
Type: in vitro ADME
Settings: human, hepatocytes
Measured quantity: half-life at 0.5 µM (h)
Respond with the bare value in h.

Tell me the measured half-life at 0.5 µM of `COc1ccc(CCN2CCN(c3ccccc3OC)CC2)cc1OC.Cl` , please. 2

###

Assay: Plasma stability, human
Type: in vitro ADME
Measured quantity: recovery at 6 h (%)
Respond with the bare value in %.

Tell me the measured recovery at 6 h of COc1ccc(CCN2CCN(c3ccccc3OC)CC2)cc1OC.Cl [LDT5] , please. 91

###

Experiment: In vitro metabolism in rat liver microsomes
Assay type: in vitro ADME
Details: male, Sprague Dawley, rat, liver microsomes
Measured quantity: half-life at 0.5 µM (min)
Respond with the bare value in min.

Tell me the measured half-life at 0.5 µM of COc1ccc(CCN2CCN(c3ccccc3OC)CC2)cc1OC.Cl [LDT5] , please. 10

###

System: P-gp
Assay: Permeability on MDCK-MDR1 cell monolayer
Assay type: in vitro ADME
Conditions: dog, MDCK-MDR1
Measured quantity: efflux ratio at 129 min
Please reply with the number alone, leaving off any unit.

Tell me the measured efflux ratio at 129 min of `COc1ccc(CCN2CCN(c3ccccc3OC)CC2)cc1OC.Cl` , please. 1

###

Test: Permeability on MDCK-MDR1 cell monolayer
Format: in vitro ADME
Details: dog, MDCK-MDR1
Measured quantity: Papp B→A at 129 min (×10⁻⁶ cm/s)
Respond with the bare value in ×10⁻⁶ cm/s.

>>> df
                                  compound    measured_quantity  observed_result
0  COc1ccc(CCN2CCN(c3ccccc3OC)CC2)cc1OC.Cl  Papp B→A at 129 min             32.4

Continue with the next compound.
Tell me the measured Papp B→A at 129 min of C=C[C@H]1C[N@@]2CC[C@H]1C[C@@H]2[C@@H](O)c1ccnc2ccc(OC)cc12 [quinidine, reference compound] , please. 39.5
